- experimentalContext: buffer; pH 7.4; 200.0 µM
endpoint: solubility kinetic

compound	observedResult
CC(=O)N1Cc2ccccc2CC1C(=O)NCc1ccccc1F (stereo not given)	> 49 µg/mL
COc1ccc(NC(=O)/C=N/O)cc1	> 29.1 µg/mL
COc1ccc(NC(=O)CNC(=O)Cc2ccccc2)cc1OC	> 49.3 µg/mL
CSc1nc2ccccc2c(=O)n1Cc1ccc(F)cc1	< 0.3 µg/mL
CCOc1ncccc1C(=O)N=c1sccn1C	> 39.5 µg/mL
Cc1ccc(NC(=O)CN2C(=O)NC3(CCCC3)C2=O)c(Cl)c1	> 50.4 µg/mL
O=C(Nc1ccc(Nc2ccccc2)cc1)c1ccc(Cl)cc1[N+](=O)[O-]	< 0.3 µg/mL
CC(C)(C)c1cc2ncnc(N3CCCCC3)c2s1	10.5 µg/mL
CCCCc1nc2cc(C(=O)N(C)C3CCOCC3)ccc2o1	> 47.5 µg/mL
CC1CCCCC1NC(=O)COC(=O)CNC(=O)c1cccc(F)c1 (stereo not given)	51.2 µg/mL
O=C(COc1ccc2ccc(=O)oc2c1)NC1CCCCC1	> 45.2 µg/mL
O=C(COC(=O)C1COc2ccccc2O1)NC1CCCCC1 (stereo not given)	> 47.9 µg/mL
CCN(C(=O)c1cccs1)C1CCS(=O)(=O)C1 (stereo not given)	> 41 µg/mL
O=C(O)c1cncc(SCc2ccccc2)n1	34.5 µg/mL
COc1ccc(-c2nc3c(s2)CN(S(C)(=O)=O)CC3)cc1OC	10.6 µg/mL
COc1ccc(CCC(=O)OCC(=O)NCc2ccccc2)cc1	> 49.1 µg/mL
CCOC(=O)c1cc2c(ccn2C)n1Cc1ccc(C#N)cc1	2.3 µg/mL
O=C(COC(=O)Cn1cnc2ccccc21)Nc1ccc(F)c(F)c1	> 51.8 µg/mL
O=C(COC(=O)C12CC3CC(CC(C3)C1)C2)Nc1ccc2[nH]c(=O)[nH]c2c1	1.3 µg/mL
CCN(CC)CC(=O)NCC1(c2ccccc2)CCCC1	40.9 µg/mL

---

// values below are reported solubility kinetic
- experimentalContext: buffer; pH 7.4; 200.0 µM

compound	valueComparator	solubility kinetic (µg/mL)
CC(NC(=O)CC1CCCCC1)c1ccccc1 (centres undefined)	>	36.8
CC(NC(=O)Nc1ccc(F)cc1F)c1ccc2c(c1)OCO2 (centres undefined)	=	2.4
CC1CC(C)(C)N2C(=O)C(=C(C#N)C#N)c3cccc1c32 (centres undefined)	=	1.2
C[C@H](NC(=O)c1ccco1)C(=O)N1CCCC1	>	35.4

---

- experimentalContext: buffer; pH 7.4; 200.0 µM
// values below are reported solubility kinetic
endpoint: solubility kinetic

compound	endpoint	observedResult
CCOC(=O)COn1c(=O)c(-c2ccc(OC)cc2)[n+]([O-])c2ccccc21	solubility kinetic	42 µg/mL
O=C(O)c1ccc(NC(=S)NC(=O)c2cccnc2)cc1	solubility kinetic	> 45.2 µg/mL
CCn1cc(C(=O)OC)c(=O)c2ccc(C)nc21	solubility kinetic	36.4 µg/mL
O=C1C(Cl)=C(N2CCCC2)C(=O)N1c1ccccc1F	solubility kinetic	> 44.2 µg/mL
CCCS(=O)(=O)N1CCN=C1SCc1ccc(F)cc1	solubility kinetic	> 47.5 µg/mL
CC(C)Cn1c(SCC(=O)O)nnc1-c1cccc(S(=O)(=O)N2CCOCC2)c1	solubility kinetic	> 66.1 µg/mL
Cc1ccccc1N1CCN(C(=O)NCc2cccc(Cl)c2)CC1	solubility kinetic	3.3 µg/mL
CCC(C)(C)NC(=S)Nc1ccccc1C	solubility kinetic	> 35.5 µg/mL
N/C(=N\O)c1ccc([N+](=O)[O-])s1	solubility kinetic	> 28.1 µg/mL
N#CC1(CCCN2CCCCC2)c2ccccc2CCc2ccccc21.O=C(O)C(=O)O	solubility kinetic	> 65.2 µg/mL
O=C1c2ccccc2C(=O)N1CCOc1ccccc1Br	solubility kinetic	4 µg/mL
Cc1nc(Cc2ccc(OC(C)C)cc2)[nH]c(=O)c1CC(=O)O	solubility kinetic	> 47.5 µg/mL
CCN(CC)C(=O)c1ccc(NC(=O)c2c(C)noc2C)cc1	solubility kinetic	> 47.3 µg/mL
Cc1cc(NCc2cccnc2)nc(N)n1	solubility kinetic	> 32.3 µg/mL
Cc1cc(NC(=O)c2cccc([N+](=O)[O-])c2)no1	solubility kinetic	< 0.2 µg/mL
Cc1ccc(Cl)cc1NC(=O)C1COc2ccccc2O1 (stereo not given)	solubility kinetic	< 0.7 µg/mL
Cc1cccc2cc3c(nc12)-c1ccccc1C3=O	solubility kinetic	< 0.5 µg/mL
COc1cc(CCC(=O)NCc2ccc(F)cc2)cc(OC)c1OC	solubility kinetic	> 52.1 µg/mL
Cl.Nc1cccc(Nc2ncnc3ccccc23)c1	solubility kinetic	31.9 µg/mL
COc1ccc(/C=C2\SC(=S)N(CC3CCCO3)C2=O)cc1 (stereo not given)	solubility kinetic	< 0.7 µg/mL
Cc1ccc(Cl)cc1NC(=O)CCC(=O)O	solubility kinetic	> 36.3 µg/mL
CC(=O)c1ccc(OCC(=O)OC(C)C(=O)NC2CCCCC2)cc1 (stereo not given)	solubility kinetic	> 52.1 µg/mL
COc1ccc(C2NC(=O)CCC2[N+](=O)[O-])cc1OC (stereo not given)	solubility kinetic	> 42 µg/mL
Oc1ccc2ccccc2c1CN1CCOCC1	solubility kinetic	> 36.5 µg/mL
CC(C)/C(C=O)=C(/NC1CCCCC1)c1ccccc1	solubility kinetic	0.9 µg/mL

---

// values below are reported solubility kinetic
- experimentalContext: buffer; pH 7.4; 200.0 µM

molecule	solubility kinetic
O=C(NC(=S)Nc1cccc(O)c1)C1CCCCC1	> 41.8 µg/mL
Cc1ccc(S(=O)(=O)NCCC(=O)NC2CC2)cc1	> 42.4 µg/mL
O=C(NNC(=S)Nc1ccc(F)c(Cl)c1)C1CC1	> 43.2 µg/mL
CCOc1ccc(C(=O)OC2CCCN(C)C2)cc1.Cl (stereo not given)	> 45 µg/mL
O=C(N/C(=C\c1ccc(Cl)cc1)C(=O)N1CCCCC1)c1ccco1	> 53.8 µg/mL

---

- experimentalContext: buffer; pH 7.4; 200.0 µM
// values below are reported solubility kinetic
endpoint: solubility kinetic

molecule	endpoint	observedResult
CC(C)(C)NC(=O)COC(=O)CCC(=O)c1ccc(F)cc1	solubility kinetic	> 0.0464 mg/mL
Cc1ccc2[nH]c(=O)c3cc(C(=O)NCCC(C)C)sc3c2c1	solubility kinetic	< 0.0004 mg/mL
CCSc1nc(O)cc(=O)n1CC	solubility kinetic	> 0.03 mg/mL
COc1ccccc1C(=O)OCCN=C1NS(=O)(=O)c2ccccc21	solubility kinetic	> 0.0541 mg/mL
CCCn1c2ccccc2c2cnn(CC(=O)NCCN(C)C)c(=O)c21	solubility kinetic	> 0.0533 mg/mL
COc1ccc(Cl)cc1N1C(=O)CC(Sc2ccccc2N)C1=O (stereo not drawn)	solubility kinetic	< 0.0004 mg/mL
Cc1cc(C)nc(Nc2ccc(Br)cc2C(=O)O)n1.Cl	solubility kinetic	> 0.0538 mg/mL
COC(=O)c1cc(S(=O)(=O)NCc2cccs2)c[nH]1	solubility kinetic	> 0.0451 mg/mL

---

- experimentalContext: buffer; pH 7.4; 200.0 µM
// values below are reported solubility kinetic
endpoint: solubility kinetic

structureString	endpoint	observedResult
COc1ccc(-c2cc(C(=O)Nc3ccccc3O)c3ccccc3n2)cc1	solubility kinetic	< 0.4 µg/mL
O=c1cc(C(F)(F)F)[nH]c2ccc(OC(F)(F)F)cc12	solubility kinetic	> 44.6 µg/mL
Fc1ccccc1OCCCn1ccnc1	solubility kinetic	> 33 µg/mL

---

// values below are reported solubility kinetic
- experimentalContext: buffer; pH 7.4; 200.0 µM

molecule	solubility kinetic
O=C(Nc1ccccc1Cl)Nc1cccc2cccnc12	< 0.2 µg/mL
Cc1ccc(S(=O)(=O)n2cnc(C)c2)cc1	> 35.4 µg/mL
N#Cc1c(N2CCNCC2)nc(-c2ccco2)c2c1CCCC2	> 46.3 µg/mL
CC(=O)c1ccc(NC(=O)COC(=O)Cc2ccsc2)cc1	> 47.6 µg/mL
COc1ccc(C2C(C(C)=O)=C(O)C(=O)N2c2ccc(F)cc2)cc1 (stereo not drawn)	48.5 µg/mL
CC(C)c1ccc(N=C2N=C(N)c3ccccc32)cc1	15.4 µg/mL
Cc1ccc(O)c(NC(=S)NC(=O)/C=C/c2ccccc2)c1	< 0.3 µg/mL
COCCCNC(=O)CN1C(=O)c2cccc3cccc1c23	> 44.8 µg/mL
Cc1ccc(S(=O)(=O)Nc2ccc(O)c3cccnc23)cc1	19 µg/mL
CN1CCN(CCCNc2c(C=O)c(=O)[nH]c3ccccc23)CC1	34.1 µg/mL
CCC1(CC)NC(=O)N(CC(=O)Nc2ccc(C)cc2C)C1=O	> 47.6 µg/mL
Cn1c(C(=O)Nc2ccc(Cl)cc2)cc2cc(Cl)ccc21	< 0.3 µg/mL
O=C(Cc1ccc(Br)cc1)Nc1nc2ccccc2[nH]1	2.4 µg/mL

---

- experimentalContext: buffer; pH 7.4; 200.0 µM
// values below are reported solubility kinetic
endpoint: solubility kinetic

compound	observedResult
O=C(NCC(=O)N1CCCCCC1)c1ccc(OC(F)F)cc1	> 0.049 mg/mL
CC(=O)c1ccc([N+](=O)[O-])c(CS(=O)(=O)c2ccccc2)c1	< 0.0007 mg/mL
COc1ccccc1NC(=O)COC(=O)C1CCCC1	> 0.0416 mg/mL
N#Cc1c(/N=C/c2ccc(-c3ccccc3C(=O)O)o2)sc2c1CCCC2	> 0.0565 mg/mL
Cc1ccccc1C(=O)NC(=S)NC1CCS(=O)(=O)C1 (stereo not given)	> 0.0469 mg/mL
CCC(CO)N=CC1=C(O)CC(c2ccccc2)CC1=O (stereo not given)	> 0.0431 mg/mL
CN(C)/C=N/C(=S)Nc1ccccc1	> 0.0311 mg/mL
CC(C)(C)C(=O)NC1CCSC1=O (stereo not given)	> 0.0302 mg/mL
O=C(CSc1cc(Cl)ccc1Cl)NC1CCCC1	0.0036 mg/mL
CCN1CCN(C(=O)CN2C(=O)COc3ccc(C)cc32)CC1	> 0.0476 mg/mL
